tested on: Staphylococcus aureus; assay: Minimum inhibitory concentration of the compound against erythromycin-susceptible Staphylococcus aureus Smith OC4172 was determined; assay type: functional
attribute.measured: MIC (µg/mL)

{"smiles.representation": "CC[C@H]1OC(=O)[C@@](C)(F)C(=O)[C@H](C)[C@@H](O[C@@H]2O[C@H](C)C[C@H](N(C)C)[C@H]2O)[C@](C)(OC(=O)NC/C=C/c2ccc(-n3cccn3)cc2)C[C@@H](C)C(=O)[C@H](C)[C@H]2NC(=O)O[C@@]21C", "target": "Staphylococcus aureus", "result": 0.25}
{"smiles.representation": "CC[C@H]1OC(=O)[C@@](C)(F)C(=O)[C@H](C)[C@@H](O[C@@H]2O[C@H](C)C[C@H](N(C)C)[C@H]2O)[C@](C)(OC(N)=O)C[C@@H](C)/C(=N\\O)[C@H](C)[C@H]2NC(=O)O[C@@]21C", "target": "Staphylococcus aureus", "result": 1}

----------
test system: Streptococcus pneumoniae; experiment: Minimum inhibitory concentration of the compound against 3 […] Streptococcus pneumoniae OC4421 with an mef(A) efflux-mediated resistance was determined; type: functional

{"smiles.representation": "CC[C@H]1OC(=O)[C@@](C)(F)C(=O)[C@H](C)[C@@H](O[C@@H]2O[C@H](C)C[C@H](N(C)C)[C@H]2O)[C@](C)(OC(=O)NC/C=C/c2cn(-c3cnccn3)cn2)C[C@@H](C)C(=O)[C@H](C)[C@H]2NC(=O)O[C@@]21C", "MIC": "0.25 µg/mL"}
{"smiles.representation": "CC[C@H]1OC(=O)[C@@](C)(F)C(=O)[C@H](C)[C@@H](O[C@@H]2O[C@H](C)C[C@H](N(C)C)[C@H]2O)[C@](C)(OC(=O)NCc2ccc(-c3ccncn3)cc2)C[C@@H](C)C(=O)[C@H](C)[C@H]2NC(=O)O[C@@]21C", "MIC": "0.12 µg/mL"}
{"smiles.representation": "CC[C@H]1OC(=O)[C@H](C)[C@@H](O[C@H]2C[C@@](C)(OC)[C@@H](O)[C@H](C)O2)[C@H](C)[C@@H](O[C@@H]2O[C@H](C)C[C@H](N(C)C)[C@H]2O)[C@](C)(O)C[C@@H](C)C(=O)[C@H](C)[C@@H](O)[C@]1(C)O", "MIC": "4 µg/mL"}
{"smiles.representation": "CC[C@H]1OC(=O)[C@@](C)(F)C(=O)[C@H](C)[C@@H](O[C@@H]2O[C@H](C)C[C@H](N(C)C)[C@H]2O)[C@](C)(OC(N)=O)C[C@@H](C)C(=O)[C@H](C)[C@H]2NC(=O)O[C@@]21C", "MIC": "2 µg/mL"}
{"smiles.representation": "CC[C@H]1OC(=O)[C@@](C)(F)C(=O)[C@H](C)[C@@H](O[C@@H]2O[C@H](C)C[C@H](N(C)C)[C@H]2O)[C@](C)(OC(N)=O)C[C@@H](C)/C(=N\\O)[C@H](C)[C@H]2NC(=O)O[C@@]21C", "MIC": "2 µg/mL"}
{"smiles.representation": "CC[C@H]1OC(=O)[C@@](C)(F)C(=O)[C@H](C)[C@@H](O[C@@H]2O[C@H](C)C[C@H](N(C)C)[C@H]2O)[C@](C)(OC(=O)NC/C=C/c2ccccc2)C[C@@H](C)/C(=N\\O)[C@H](C)[C@H]2NC(=O)O[C@@]21C", "MIC": "0.5 µg/mL"}
{"smiles.representation": "CC[C@H]1OC(=O)[C@@](C)(F)C(=O)[C@H](C)[C@@H](O[C@@H]2O[C@H](C)C[C@H](N(C)C)[C@H]2O)[C@](C)(OC(=O)NC/C=C/c2ccc(-c3ccccn3)cc2)C[C@@H](C)C(=O)[C@H](C)[C@H]2NC(=O)O[C@@]21C", "MIC": "0.12 µg/mL"}
{"smiles.representation": "CC[C@H]1OC(=O)[C@@](C)(F)C(=O)[C@H](C)[C@@H](O[C@@H]2O[C@H](C)C[C@H](N(C)C)[C@H]2O)[C@](C)(OC(=O)NC/C=C/c2ccc(-c3cccnn3)cc2)C[C@@H](C)C(=O)[C@H](C)[C@H]2NC(=O)O[C@@]21C", "MIC": "0.12 µg/mL"}

----------
test system: Staphylococcus aureus; experiment: Minimum inhibitory concentration of the compound against erythromycin-susceptible Staphylococcus aureus Smith OC4172 was determined; format: functional
Listed here: items and their measured MIC.

{"compound": "CC[C@H]1OC(=O)[C@@](C)(F)C(=O)[C@H](C)[C@@H](O[C@@H]2O[C@H](C)C[C@H](N(C)C)[C@H]2O)[C@](C)(OC(=O)NC/C=C/c2cccnc2)C[C@@H](C)/C(=N\\O)[C@H](C)[C@H]2NC(=O)O[C@@]21C", "MIC [µg/mL]": 0.5}
{"compound": "CC[C@H]1OC(=O)[C@@](C)(F)C(=O)[C@H](C)[C@@H](O[C@@H]2O[C@H](C)C[C@H](N(C)C)[C@H]2O)[C@](C)(OC(=O)NC/C=C/c2ccccc2)C[C@@H](C)/C(=N\\O)[C@H](C)[C@H]2NC(=O)O[C@@]21C", "MIC [µg/mL]": 0.25}
{"compound": "CC[C@H]1OC(=O)[C@H](C)[C@@H](O[C@H]2C[C@@](C)(OC)[C@@H](O)[C@H](C)O2)[C@H](C)[C@@H](O[C@@H]2O[C@H](C)C[C@H](N(C)C)[C@H]2O)[C@](C)(O)C[C@@H](C)C(=O)[C@H](C)[C@@H](O)[C@]1(C)O [ERYTHROMYCIN]", "MIC [µg/mL]": 0.5}
{"compound": "CC[C@H]1OC(=O)[C@@](C)(F)C(=O)[C@H](C)[C@@H](O[C@@H]2O[C@H](C)C[C@H](N(C)C)[C@H]2O)[C@](C)(OC(=O)NC/C=C/c2ccc(-c3ncccn3)cc2)C[C@@H](C)C(=O)[C@H](C)[C@H]2NC(=O)O[C@@]21C", "MIC [µg/mL]": 0.5}
{"compound": "CC[C@H]1OC(=O)[C@@](C)(F)C(=O)[C@H](C)[C@@H](O[C@@H]2O[C@H](C)C[C@H](N(C)C)[C@H]2O)[C@](C)(OC(=O)NCc2ccc(-c3ccncn3)cc2)C[C@@H](C)C(=O)[C@H](C)[C@H]2NC(=O)O[C@@]21C", "MIC [µg/mL]": 0.12}
{"compound": "CC[C@H]1OC(=O)[C@@](C)(F)C(=O)[C@H](C)[C@@H](O[C@@H]2O[C@H](C)C[C@H](N(C)C)[C@H]2O)[C@](C)(OC(=O)NC/C=C/c2ccc3ncccc3c2)C[C@@H](C)/C(=N\\O)[C@H](C)[C@H]2NC(=O)O[C@@]21C", "MIC [µg/mL]": 0.25}
{"compound": "CC[C@H]1OC(=O)[C@@](C)(F)C(=O)[C@H](C)[C@@H](O[C@@H]2O[C@H](C)C[C@H](N(C)C)[C@H]2O)[C@](C)(OC(=O)NCCOCc2ccc(-c3ncccn3)cc2)C[C@@H](C)C(=O)[C@H](C)[C@H]2NC(=O)O[C@@]21C", "MIC [µg/mL]": 0.25}
{"compound": "CC[C@H]1OC(=O)[C@H](C)C(=O)[C@H](C)[C@@H](O[C@@H]2O[C@H](C)C[C@H](N(C)C)[C@H]2O)[C@](C)(OC)C[C@@H](C)C(=O)[C@H](C)[C@H]2N(CCCCn3cnc(-c4cccnc4)c3)C(=O)O[C@]12C [TELITHROMYCIN]", "MIC [µg/mL]": 0.12}

----------
Listed here: items and their measured MIC.
system: Streptococcus pneumoniae; experiment: Minimum inhibitory concentration of the compound against 3 […] Streptococcus pneumoniae OC4051 with an erm(B)-ribosomal methylase-mediated resistance was determined; format: functional

{"molecule": "CC[C@H]1OC(=O)[C@@](C)(F)C(=O)[C@H](C)[C@@H](O[C@@H]2O[C@H](C)C[C@H](N(C)C)[C@H]2O)[C@](C)(OC(=O)NC/C=C/c2ccc3ncccc3c2)C[C@@H](C)C(=O)[C@H](C)[C@H]2NC(=O)O[C@@]21C", "qualifier": "=", "MIC [µg/mL]": 0.06}
{"molecule": "CC[C@H]1OC(=O)[C@@](C)(F)C(=O)[C@H](C)[C@@H](O[C@@H]2O[C@H](C)C[C@H](N(C)C)[C@H]2O)[C@](C)(OC(=O)NC/C=C/c2ccc(-c3cccnn3)cc2)C[C@@H](C)/C(=N\\O)[C@H](C)[C@H]2NC(=O)O[C@@]21C", "qualifier": "=", "MIC [µg/mL]": 0.06}
{"molecule": "CC[C@H]1OC(=O)[C@H](C)[C@@H](O[C@H]2C[C@@](C)(OC)[C@@H](O)[C@H](C)O2)[C@H](C)[C@@H](O[C@@H]2O[C@H](C)C[C@H](N(C)C)[C@H]2O)[C@](C)(O)C[C@@H](C)C(=O)[C@H](C)[C@@H](O)[C@]1(C)O [ERYTHROMYCIN]", "qualifier": ">", "MIC [µg/mL]": 16}
{"molecule": "CC[C@H]1OC(=O)[C@H](C)C(=O)[C@H](C)[C@@H](O[C@@H]2O[C@H](C)C[C@H](N(C)C)[C@H]2O)[C@](C)(OC)C[C@@H](C)C(=O)[C@H](C)[C@H]2N(CCCCn3cnc(-c4cccnc4)c3)C(=O)O[C@]12C [TELITHROMYCIN]", "qualifier": "=", "MIC [µg/mL]": 0.06}
{"molecule": "CC[C@H]1OC(=O)[C@@](C)(F)C(=O)[C@H](C)[C@@H](O[C@@H]2O[C@H](C)C[C@H](N(C)C)[C@H]2O)[C@](C)(OC(=O)NC/C=C/c2ccc(-n3cccn3)cc2)C[C@@H](C)C(=O)[C@H](C)[C@H]2NC(=O)O[C@@]21C", "qualifier": "=", "MIC [µg/mL]": 0.12}
{"molecule": "CC[C@H]1OC(=O)[C@@](C)(F)C(=O)[C@H](C)[C@@H](O[C@@H]2O[C@H](C)C[C@H](N(C)C)[C@H]2O)[C@](C)(OC(=O)NCCOCc2ccc(-c3ncccn3)cc2)C[C@@H](C)C(=O)[C@H](C)[C@H]2NC(=O)O[C@@]21C", "qualifier": "=", "MIC [µg/mL]": 0.12}
{"molecule": "CC[C@H]1OC(=O)[C@@](C)(F)C(=O)[C@H](C)[C@@H](O[C@@H]2O[C@H](C)C[C@H](N(C)C)[C@H]2O)[C@](C)(OC(=O)NC/C=C/c2ccc(-c3cccnn3)cc2)C[C@@H](C)C(=O)[C@H](C)[C@H]2NC(=O)O[C@@]21C", "qualifier": "=", "MIC [µg/mL]": 0.06}
{"molecule": "CC[C@H]1OC(=O)[C@@](C)(F)C(=O)[C@H](C)[C@@H](O[C@@H]2O[C@H](C)C[C@H](N(C)C)[C@H]2O)[C@](C)(OC(=O)NCc2ccc(-c3ccncn3)cc2)C[C@@H](C)C(=O)[C@H](C)[C@H]2NC(=O)O[C@@]21C", "qualifier": "=", "MIC [µg/mL]": 0.06}
